Would you mind telling me the reported target mRNA inhibition of each entry?
target: DGAT2
recorded_conditions: ASO, HepG2, 10 µM
After the bases stand the sugars from the 5' end (letter, count) and the backbone: PS all phosphorothioate, else s phosphorothioate and o phosphodiester by linkage. Methylation of C is not given here. e = 2'-O-(2-methoxyethyl) (MOE); d = 2'-deoxy (DNA)
A complete answer gives the number and then names the unit.

Query block: If you can, please state the reported target mRNA inhibition value of CAGGTTCATCTGCCTTGACG (sugars e5 d10 e5, PS) .
Result block: 72%

Query block: Entry to check: ACCACAGCGATAATCAC (sugars e3 d10 e4, PS)
Result block: 75%

Query block: Entry to check: GCCTGGACAAGTCCTGCCCA (sugars e2 d13 e5, PS)
Result block: 87%

Query block: Entry to check: TATTCTAAAACTCAAATCCA (sugars e5 d10 e5, PS)
Result block: 75%

Query block: Entry to check: ACAAAGTCTATCAGGATGCA (sugars e5 d10 e5, PS)
Result block: 91%

Query block: Entry to check: TCAGGACCTCAGGGCTGGCC (sugars e5 d10 e5, PS)
Result block: 82%

Query block: Entry to check: AATGGGAATGGTATCGCACT (sugars e5 d10 e5, PS)
Result block: 89%

Query block: Entry to check: GACTCAGTGTCCTCCTTAGC (sugars e5 d10 e5, PS)
Result block: 73%

Query block: Entry to check: GCTTGTACACTTCATTCTCT (sugars e5 d10 e5, PS)
Result block: 85%

Query block: Entry to check: GTCTCATTCATCTGGGCCCT (sugars e5 d10 e5, PS)
Result block: 86%

Query block: Entry to check: CCAGTTTCGGACCCACTGTG (sugars e5 d10 e5, PS)
Result block: 31%

Query block: Entry to check: GCTTCCTCCCACTTCAGTTT (sugars e5 d10 e5, PS)
Result block: 83%

Query block: Entry to check: GATCACCTGCTTGTACACTT (sugars e5 d10 e5, PS)
Result block: 64%

Query block: Entry to check: TGGACAAGTCATCTTCCAGC (sugars e5 d10 e5, PS)
Result block: 74%

Query block: Entry to check: ATTTCTTATCTTCAATCCTC (sugars e5 d10 e5, PS)
Result block: 95%

Query block: Entry to check: CAGATCTTCATTACATGATT (sugars e5 d10 e5, PS)
Result block: 89%

Query block: Entry to check: GCACCAAGGAATGGTGTGTT (sugars e5 d10 e5, PS)
Result block: 38%

Query block: Entry to check: AATGGAGTGACAGGGCAGGA (sugars e5 d10 e5, PS)
Result block: 81%

Query block: Entry to check: GCTCAGAGACTCAGCCGCAC (sugars e5 d10 e5, PS)
Result block: 60%

Query block: Entry to check: TTGTCCTGGTCCCAGTACTT (sugars e5 d10 e5, PS)
Result block: 88%

Query block: Entry to check: TGGAGCTCAGAGACTCAGCC (sugars e5 d10 e5, PS)
Result block: 70%

Query block: Entry to check: GTTGGGCAGTCACCATTTGC (sugars e5 d10 e5, PS)
Result block: 58%

Query block: Entry to check: CAGCAGATGATGTCCTGCCT (sugars e5 d10 e5, PS)
Result block: 88%

Query block: Entry to check: GTCAAACCTAGGTTCAGACT (sugars e5 d10 e5, PS)
Result block: 87%

* * *

target: HTRA1
recorded_conditions: ASO, U251, 5 µM
After the bases stand the sugars from the 5' end (letter, count) and the backbone: PS all phosphorothioate, else s phosphorothioate and o phosphodiester by linkage. Methylation of C is not given here. l = locked nucleic acid (LNA); d = 2'-deoxy (DNA)
recorded_endpoint: target mRNA inhibition (%)
The reply should contain only the number, in %.

Query block: For HTRA1, provide target mRNA inhibition of GATGATGACTCAGTTAAAGG (sugars l2 d14 l4, PS) please.
Result block: 71

Query block: Entry to check: AAGTACTTTAATAGCTCAAA (sugars l4 d12 l4, PS)
Result block: 51

Query block: Entry to check: TTCTATCTACGCATTGTAT (sugars l3 d13 l3, PS)
Result block: 69

Query block: Entry to check: TATCTACGCATTGTATCGAC (sugars l2 d15 l3, PS)
Result block: 51

Query block: Entry to check: GTAAGAAGTACTTTAATAGC (sugars l2 d14 l4, PS)
Result block: 69

* * *

target: IRF5
recorded_conditions: ASO, KARPAS-229, 4 µM
After the bases stand the sugars from the 5' end (letter, count) and the backbone: PS all phosphorothioate, else s phosphorothioate and o phosphodiester by linkage. Methylation of C is not given here. e = 2'-O-(2-methoxyethyl) (MOE); k = constrained ethyl (cEt); d = 2'-deoxy (DNA)
recorded_endpoint: target mRNA inhibition (%)
The reply should contain only the number, in %.

Query block: If you can, please state the reported target mRNA inhibition value of GTTCTTGGACTCTCAA (sugars kkddddddddddkeke, PS) .
Result block: 27

Query block: Entry to check: TCACCACTGTGTACCC (sugars kkddddddddkekekk, PS)
Result block: 0

Query block: Entry to check: AGGTTCTTGGACTCTC (sugars k2 d8 e4 k2, PS)
Result block: 17

Query block: Entry to check: AACCATTCTATGCCTT (sugars k3 d10 k3, PS)
Result block: 33

* * *

target: APOL1
recorded_conditions: ASO, A431, 2 µM
After the bases stand the sugars from the 5' end (letter, count) and the backbone: PS all phosphorothioate, else s phosphorothioate and o phosphodiester by linkage. Methylation of C is not given here. e = 2'-O-(2-methoxyethyl) (MOE); k = constrained ethyl (cEt); d = 2'-deoxy (DNA)
Would you mind telling me the reported target mRNA inhibition of each entry?
The reply should contain only the number, in %.

Query block: If you can, please state the reported target mRNA inhibition value of ATTCTCATGGTACAGG (sugars kkddddkdkdkddddd, PS) .
Result block: 84

Query block: Entry to check: TGAGTATTGTTTTTGT (sugars kkkddddkekeddddd, PS)
Result block: 92

Query block: Entry to check: GAAGCTTTAAACTCAG (sugars kkkddddkekekdddd, PS)
Result block: 47

Query block: Entry to check: TGGGAATTATGGAATT (sugars k2 d4 e3 k2 d5, PS)
Result block: 63

Query block: Entry to check: GAATTATGGAATTGCA (sugars kkdddddkekeddddd, PS)
Result block: 92

Query block: Entry to check: TATCAGATGGGTACTT (sugars k3 d4 k3 e1 d5, PS)
Result block: 69

Query block: Entry to check: CTTTAAACTCAGGTGA (sugars k2 d4 e3 k2 d5, PS)
Result block: 92

Query block: Entry to check: TATATTTGATCCTCAA (sugars kdddddkekekddddd, PS)
Result block: 89

Query block: Entry to check: GGGAATTATGGAATTG (sugars kkkddddkekeddddd, PS)
Result block: 63

Query block: Entry to check: CTTTAAACTCAGGTGA (sugars kdddddkekekddddd, PS)
Result block: 77

Query block: Entry to check: TTATGAAATTATTGGT (sugars kkddddkdkdkddddd, PS)
Result block: 47

Query block: Entry to check: TTATTCTCATGGTACA (sugars k2 d4 e3 k2 d5, PS)
Result block: 48

* * *

target: DGAT2
recorded_conditions: ASO, HepG2, 0.12 µM
After the bases stand the sugars from the 5' end (letter, count) and the backbone: PS all phosphorothioate, else s phosphorothioate and o phosphodiester by linkage. Methylation of C is not given here. e = 2'-O-(2-methoxyethyl) (MOE); d = 2'-deoxy (DNA)
just bin them by target mRNA inhibition: low bracket = under 40%, middle bracket = from 40% up to 60%, high bracket = 60% and over

Query block: Which category fits this record: CAGCCTGGACAAGTCCTGCC (sugars e2 d13 e5, PS)
Result block: high bracket

Query block: Entry to check: TTATCCTTGAGGGTCTCATA (sugars e5 d10 e5, PS)
Result block: middle bracket

Query block: Entry to check: TTCTGTGGCCTCTGTGCTGA (sugars e5 d10 e5, PS)
Result block: low bracket

Query block: Entry to check: AGCCAGGTAAGGCCGTATGC (sugars e2 d13 e5, PS)
Result block: high bracket

Query block: Entry to check: TGGAGCTCAGAGACTCAGCC (sugars e5 d10 e5, PS)
Result block: high bracket

Query block: Entry to check: GTTTCGGACCCACTGTGACC (sugars e3 d14 e3, PS)
Result block: high bracket

Query block: Entry to check: CGAAGATCACCTGCTTGTAC (sugars e5 d10 e5, PS)
Result block: high bracket

Query block: Entry to check: GGGATGATAAACACTAAGGT (sugars e5 d10 e5, PS)
Result block: low bracket

Query block: Entry to check: CAGGAAGGCACAGAAAAGTG (sugars e5 d10 e5, PS)
Result block: low bracket

Query block: Entry to check: TGGTCAGCAGGTTGTGTGTC (sugars e3 d14 e3, PS)
Result block: middle bracket

Query block: Entry to check: ATGTATTTCTGGAACTTCTT (sugars e5 d10 e5, PS)
Result block: middle bracket

Query block: Entry to check: TTTCGGACCCACTGTGACCT (sugars e2 d13 e5, PS)
Result block: high bracket

Query block: Entry to check: AGGAAGGACAGGACCCACTG (sugars e5 d10 e5, PS)
Result block: low bracket

Query block: Entry to check: ATCCAGTGCCCCATCTCCCA (sugars e5 d10 e5, PS)
Result block: low bracket

Query block: Entry to check: CCTGGTGGTCAGCAGGTTGT (sugars e5 d10 e5, PS)
Result block: high bracket

Query block: Entry to check: CCCACTGGAGCACTGAGATG (sugars e3 d14 e3, PS)
Result block: high bracket

Query block: Entry to check: TTCACCAGGGCCTCCATGTA (sugars e5 d10 e5, PS)
Result block: low bracket

Query block: Entry to check: CCCAGTTTCGGACCCACTGT (sugars e3 d14 e3, PS)
Result block: high bracket

Query block: Entry to check: GTGGTGATGGGCTTGGAGTA (sugars e5 d10 e5, PS)
Result block: low bracket

Query block: Entry to check: ACCCACTGGAGCACTGAGAT (sugars e2 d13 e5, PS)
Result block: middle bracket

Query block: Entry to check: TGTCTTCACCAGCTGGATGG (sugars e5 d10 e5, PS)
Result block: middle bracket

Query block: Entry to check: ATTAGCAGTAGCTCAGGAGA (sugars e5 d10 e5, PS)
Result block: middle bracket

Query block: Entry to check: ATTGCCACTCCCATTCTTTG (sugars e2 d13 e5, PS)
Result block: middle bracket

Query block: Entry to check: CCATGTACATGGTGTGGTAC (sugars e5 d10 e5, PS)
Result block: middle bracket
